Test system: Influenza, Ann Arbor virus
measurementDescription: Influenza Ann Arbor in mice, oral; schedule by table; late read day 5 (Tables 15, 25, 29, 30), 6 (18, 20, 22, 23, 26, 27, 28, 54), 7 (14, 19, 21, 24, 53, 56), 8 (16, 17, 51), 9 (11, 55)
Format: in vivo, mouse
conditionNotes: total dose 300 ng
Counter-ions that a name gives are not always drawn.
quantityMeasured: Survivors
// no unit, no text: just the number

compound="CNN [Methylhydrazine, methylhydrazine]" reported=0
compound="CN(C)N [1,1-dimethylhydrazine]" reported=0
compound="CCC(C)=NNC(=N)N.O=[N+]([O-])O [1-(sec-butylideneamino)guanidine nitrate]" reported=2
compound=C=CCNC(=S)NN=C1Cc2ccccc2C1 reported=0
compound=Cc1ccccc1NC(=S)NN=C1CCCC1 reported=0
compound=NC(=S)NN=C1Cc2ccccc2C1 reported=1
compound=N=C(N)NN reported=4
compound=CCCC(C)=NNC(N)=S reported=0

Reported Survivors for CNNC [1,2-dimethylhydrazine, dihydrochloride] : what is it?
0

Entry to check: CCC(CC)=NNC(N)=S
0

Entry to check: NC(N)=NN=Cc1c(Cl)cccc1Cl
0

Entry to check: CCOC(=O)CC(C)=NNC(N)=S
0

Entry to check: CC(C)=NNC(N)=S
0

Entry to check: NC(N)=S
0

---

System: Influenza, Ann Arbor virus
measurementDescription: Influenza Ann Arbor in mice, oral; schedule by table; late read day 5 (Tables 15, 25, 29, 30), 6 (18, 20, 22, 23, 26, 27, 28, 54), 7 (14, 19, 21, 24, 53, 56), 8 (16, 17, 51), 9 (11, 55)
Type: in vivo, mouse
conditionNotes: total dose 3 mg
Structures can show the parent of a compound that is named as a salt.
# maps each entry to its Survivors
// no unit, no text: just the number

Worked examples, 2 compounds total:
compound=Cc1ccccc1NC(=S)NN=C1CCCC1 quantitymeasured=Survivors reported=0
compound="NC(N)=S [Thiourea]" quantitymeasured=Survivors reported=0

Proceeding to the next compound to report its Survivors.
Requested read-out Survivors, target or system Influenza, Ann Arbor virus, entry CNNC [1,2-dimethylhydrazine, dihydrochloride]
0

---

# maps each entry to its No. animals surviving after 5-7 days
System: Influenza, Ann Arbor virus
measurementDescription: Influenza Ann Arbor in mice, oral; schedule by table; late read day 5 (Tables 15, 25, 29, 30), 6 (18, 20, 22, 23, 26, 27, 28, 54), 7 (14, 19, 21, 24, 53, 56), 8 (16, 17, 51), 9 (11, 55)
Assay type: in vivo, mouse
conditionNotes: total dose 30 μg

Worked examples, 3 molecules total:
molecule="CCCC(C)=NNC(N)=S [2-pentanone, thiosemicarbazone]" quantitymeasured="No. animals surviving after 5-7 days" reported=1
molecule=NC(N)=NN=Cc1c(Cl)cccc1Cl quantitymeasured="No. animals surviving after 5-7 days" reported=3
molecule="NC(=S)NN=C1Cc2ccccc2C1 [2-indanone, thiosemicarbazone]" quantitymeasured="No. animals surviving after 5-7 days" reported=8

Reported No. animals surviving after 5-7 days for CNN [Methylhydrazine, methylhydrazine] : what is it?
3
